Would you kindly list pEC50 for each of these molecules?
Tested on: HEK293 cells overexpressing APOL1 G2
Assay: APOL1 G2 HEK293 cell rescue assay (reversal of cell death caused by overexpression of APOL1)
Type: cell-based
Conditions: Homo sapiens, HEK293, HEK293 overexpressing APOL1 G2; geometric mean of at least 2 assay runs; † = single assay run
Numbers only, as −log10 of the molar value.

O=C(NC1CCS(=O)(=O)C1)c1ccc(OCCN2CCC3(CC2)C(=O)Nc2ccc(Cl)cc23)cc1F (stereo not shown) [Compound 241] = 7.14
CN1C(=O)C2(CCN(CCOc3ccc(C(=O)N4CCS(=O)(=O)CC4)c(C(F)(F)F)c3)CC2)c2cc(C#N)ccc21 = 7.05
NC(=O)c1ccc(OCCN2CCC3(CC2)C(=O)Nc2ccc(Cl)cc23)cn1 = 6.83

With those in mind, consider the next molecule.
# input molecule: O=C1Nc2ccc(Cl)cc2C12CCN(CCOc1cnc(N3CC(O)C3)nc1)CC2 ; wanted: its pEC50
7.07

====

System: HEK293 cells overexpressing APOL1 G2
Assay: APOL1 G2 HEK293 cell rescue assay (reversal of cell death caused by overexpression of APOL1)
Assay type: cell-based
Settings: Homo sapiens, HEK293, HEK293 overexpressing APOL1 G2; geometric mean of at least 2 assay runs; † = single assay run
Measure: pEC50
One number for each entry, as −log10 of the molar value.

For orientation, consider the following solved cases.
O=C1Nc2ccc(Cl)cc2C12CCN(CCOc1ccc(S(=O)(=O)[C@H]3C[C@H](O)C3)cc1)CC2 = 7.10
CC(=O)c1ncc(OCCN2CCC3(CC2)C(=O)Nc2ccc(C#N)cc23)cc1C(F)(F)F = 7.09

With those in mind, consider the next molecule.
# input molecule: [2H]C([2H])([2H])N1C(=O)C2(CCN(CCOc3cnc4c(c3)CCC(=O)N4[C@H]3C[C@@](C)(O)C3)CC2)c2cc(Cl)ccc21 ; wanted: its pEC50
7.51

====

Tested on: HEK293 clonal cell line overexpressing APOL1 G1
Test: APOL1 G1 HEK293 cell rescue assay (Example B3)
Assay type: cell-based
Conditions: Homo sapiens, HEK293, HEK293 clonal line overexpressing APOL1 G1; geometric mean of at least 2 runs; † = single run; ¥ = concentration at 50% rescue estimated (no sigmoidal curve)
Would you kindly list pEC50 for each of these compounds?
Numbers only, as −log10 of the molar value.

CN1C(=O)CCc2cc(OCCN3CCC4(CC3)C(=O)Nc3ccc(Cl)cc34)cnc21 [Compound 78] = 6.89

With those in mind, consider the next compound.
// fetch HEK293 clonal cell line overexpressing APOL1 G1 pEC50 for Cc1cc(OCCN2CCC3(CC2)C(=O)Nc2ccc(Cl)cc23)cc(C)c1S(C)(=O)=O [Compound 129]
7.14

====

System: HEK293 clonal cell line overexpressing APOL1 G1
Test: APOL1 G1 HEK293 cell rescue assay (Example B3)
Assay type: cell-based
Conditions: Homo sapiens, HEK293, HEK293 clonal line overexpressing APOL1 G1; geometric mean of at least 2 runs; † = single run; ¥ = concentration at 50% rescue estimated (no sigmoidal curve)
Note to self: EC50 under 300 nM means 1.0, ties and anything higher get 0.0.

Observe how each entry below is paired with its result.
CN1C(=O)C2(CCN(CCOc3ccc4nccnc4c3)CC2)c2ccccc21 = 0.0
O=C1Nc2ccc(Cl)cc2C12CCN(CCOc1cnc(N3CC4(C3)CS(=O)(=O)C4)nc1)CC2 = 1.0
Cn1c(=O)oc2cc(OCCN3CCC4(CC3)C(=O)Nc3ccc(C#N)cc34)ccc21 = 0.0
CC(=O)N1CCCc2cc(OCCN3CCC4(CC3)C(=O)Nc3ccc(C#N)cc34)cnc21 = 0.0
Cc1nc(-c2ccc(OCCN3CCC4(CC3)C(=O)N(C)c3ccccc34)cc2)no1 = 0.0

Is EC50 strictly under 300 nM for the entry CNC(=O)N1CCCc2cc(OCCN3CCC4(CC3)C(=O)Nc3ccc(Cl)cc34)ccc21 ?
1.0

Also [2H]C([2H])([2H])N1C(=O)C2(CCN(CCOc3cnc4c(c3)CCC(=O)N4[C@H]3C[C@@H](O)C3)CC2)c2cc(Cl)ccc21 , if possible.
1.0

Also O=C1CCc2cc(OCCN3CCC4(CC3)C(=O)Nc3ccc(Cl)cc34)ccc2N1C1COC1 , if possible.
1.0

Also Cc1cc(OCCN2CCC3(CC2)C(=O)Nc2ccc(Cl)cc23)cnc1S(C)(=O)=O , if possible.
1.0
